These entries and their values trace back to paper PMC10534693.

assay.overview: In vivo pharmacokinetic study of BUS with or without WGM in rats
details: rat, plasma, po, 30 mg/kg, 30 mg/kg oral, with or without WGM, read-out: Tmax of BUS
Protocol: The blood was immediately centrifuged at 3000× g for 10 min at 4 °C to obtain the plasma, which was pretreated and analyzed using the UPLC-MS/MS method. The average plasma pharmacokinetic parameters, including the area under the curve from time 0 extrapolated to infinity (AUCinf) and the terminal half-life (t1/2), were determined using a non-compartment model (WinNonlin Ver. 3.1; Certara, Inc., Princeton, NJ, USA). […]
measured.parameter: Tmax

[ask] Would you mind telling me what Tmax value was observed for `O=C1CC2(CCCC2)CC(=O)N1CCCCN1CCN(c2ncccn2)CC1` ?
[reply] 5 to 15 min

====

System: CYP3A
assay.overview: Inhibition of CYP3A-mediated metabolism (disappearance) of buspirone in rat liver S9 fraction
Type: in vitro ADME
details: probe buspirone (BUS); rat liver S9 fraction 1 mg/mL, 1 μM BUS, 30 min, n = 5
For each of the molecules below, state its IC50 at 30 min.
Expressed in µM, but write only the number.

[ask] Would you mind telling me what IC50 at 30 min value was observed for COc1cc(O[C@@H]2O[C@H](CO)[C@@H](O)[C@H](O)[C@H]2O)c2c(=O)cc(-c3ccc(OC)c(O)c3)oc2c1 [Compound 2, pilloin 5-O-β-D-glucopyranoside] ?
[reply] 18.7

[ask] Would you mind telling me what IC50 at 30 min value was observed for COc1cc(O[C@@H]2O[C@H](CO)[C@@H](O)[C@H](O)[C@H]2O)c2c(=O)cc(-c3ccc(O)c(O)c3)oc2c1 [Compound 1, 7-methoxyluteolin-5-O-glucoside] ?
[reply] 2.73

====

assay.overview: In vivo pharmacokinetic study of BUS with or without WGM in rats
details: rat, plasma, po, 30 mg/kg, BUS 30 mg/kg oral co-administered with 1 g/kg WGM, mean ± SD, n = 6
measured.parameter: half-life
# include the unit after the value

[ask] Would you mind telling me what half-life value was observed for `O=C1CC2(CCCC2)CC(=O)N1CCCCN1CCN(c2ncccn2)CC1` ?
[reply] 1.72 h

====

assay.overview: In vivo pharmacokinetic study of BUS with or without WGM in rats
details: rat, plasma, po, 30 mg/kg, BUS alone, 30 mg/kg oral, mean ± SD, n = 6
measured.parameter: Cmax (ng/mL)
Expressed in ng/mL, but write only the number.

[ask] Would you mind telling me what Cmax value was observed for O=C1CC2(CCCC2)CC(=O)N1CCCCN1CCN(c2ncccn2)CC1 [BUS, Buspirone] ?
[reply] 1630

====

assay.overview: In vivo pharmacokinetic study of BUS with or without WGM in rats
details: rat, plasma, po, 30 mg/kg, BUS 30 mg/kg oral co-administered with 1 g/kg WGM, mean ± SD, n = 6
measured.parameter: Cmax (ng/mL)
Expressed in ng/mL, but write only the number.

[ask] Would you mind telling me what Cmax value was observed for O=C1CC2(CCCC2)CC(=O)N1CCCCN1CCN(c2ncccn2)CC1 [BUS, Buspirone] ?
[reply] 2020

====

assay.overview: In vivo pharmacokinetic study of BUS with or without WGM in rats
details: rat, plasma, po, 30 mg/kg, BUS alone, 30 mg/kg oral, n = 6, read-out: Tmax (converted)
measured.parameter: Tmax (min)
Expressed in min, but write only the number.

[ask] Would you mind telling me what Tmax value was observed for O=C1CC2(CCCC2)CC(=O)N1CCCCN1CCN(c2ncccn2)CC1 [BUS, Buspirone] ?
[reply] 10
